Test system: Plasmodium falciparum
method-summary: NOVARTIS: Inhibition of Plasmodium falciparum 3D7 (drug-susceptible) proliferation in erythrocyte-based infection assay
Type: functional, organism-based
test-parameters: Plasmodium falciparum, 3D7
reported-property: EC50

Before answering, review these 3 worked examples.
NC(=O)/C(=C\c1cccc2ccccc12)NC(=O)c1ccccc1 > 1.14 µM
NS(=O)(=O)c1ccc(CCNC(=O)/C=C/c2ccc3c(c2)OCO3)cc1 > 1.4 µM
O=[N+]([O-])c1cccc(CNc2ccc(F)c(Cl)c2)c1 > 12.5 µM

Below are some compounds; for each one, tell me its EC50.
1. Cc1cc(C)c(NC(=S)N(CCCN2CCCCC2)Cc2cccs2)c(C)c1
2. COC(CNC(=O)c1c[nH]c2ccc(S(=O)(=O)N3CCN(C)CC3)cc2c1=O)OC
3. CCCCOc1c2ccccc2nc2ccccc12

**A:**
1: > 1.54 µM; 2: > 12.5 µM; 3: > 1.25 µM
